assayedTarget: UniProt:Q15120
Sequence (Q15120 whole entry): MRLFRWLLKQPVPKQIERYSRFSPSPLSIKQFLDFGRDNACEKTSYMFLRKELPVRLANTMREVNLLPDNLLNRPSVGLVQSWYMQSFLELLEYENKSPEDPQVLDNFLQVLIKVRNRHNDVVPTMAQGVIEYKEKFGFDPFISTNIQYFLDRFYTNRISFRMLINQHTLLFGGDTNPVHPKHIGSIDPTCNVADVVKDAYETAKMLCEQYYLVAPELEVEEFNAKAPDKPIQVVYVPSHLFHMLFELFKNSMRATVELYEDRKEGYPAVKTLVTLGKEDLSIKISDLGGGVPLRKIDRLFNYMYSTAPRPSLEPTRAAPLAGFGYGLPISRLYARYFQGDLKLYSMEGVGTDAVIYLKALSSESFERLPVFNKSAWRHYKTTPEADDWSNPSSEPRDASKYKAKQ
method: Fluorescence quenching binding study with purified PDK3
measurementKind: pKd
As a rule, pKd stands for the negative log10 of the concentration, concentration in M.

Some molecules with recorded pKd:
molecule	pKd
CCC(C)(C)C(=O)O[C@H]1C[C@@H](C)C=C2C=C[C@H](C)[C@H](CC[C@@H]3C[C@@H](O)CC(=O)O3)[C@H]21 [Simvastatin, reference compound]	5.59
COc1cc(CNC(=O)CCCC/C=C/C(C)C)ccc1O	6.57
CC(C)=CCCC(C)=CC=O (mixture of isomers)	6.75

IN: For the molecule O=c1oc2c(O)c(O)cc3c(=O)oc4c(O)c(O)cc1c4c23 , report pKd.
OUT: 8.43

IN: For the molecule C[C@H]1[C@H](C)CC[C@]2(C(=O)O)CC[C@]3(C)C(=CC[C@@H]4[C@@]5(C)CC[C@H](O)C(C)(C)[C@@H]5CC[C@]43C)[C@H]12 , report pKd.
OUT: 5.75

IN: For the molecule CC1(C)O[C@H]2CC(=O)OC[C@]23[C@H]2CC[C@@]4(C)[C@H](c5ccoc5)OC(=O)[C@H]5O[C@]54[C@]2(C)C(=O)C[C@@H]13 , report pKd.
OUT: 7.50

IN: For the molecule COc1cc(C=O)ccc1O , report pKd.
OUT: 5.25
